tested on: Bacteroides caccae; assay: growth AUC relative to DMSO control (median of replicates) (fraction); higher = more growth (less inhibition), active = hit call of the paper; details: 20 µM; 24 h
Please provide measured growth AUC for the entries that follow.
I'd appreciate a reply containing only the number, no unit.

Please indicate growth AUC recorded for CCN(CC)C(=O)SCc1ccc(Cl)cc1 0.98

Supply reported growth AUC belonging to this compound: Oc1ccc(Cl)c(Cl)c1Cl 0.922

Recall and state the measured growth AUC for COP(N)(=O)SC (centres undefined) . 1.01

Answer with the recorded growth AUC of O=NN(CCO)CCO only. 1.01

Output growth AUC of COP(=S)(OC)Oc1ccc([N+](=O)[O-])c(C)c1 0.992

// Input: Cc1ccc2nc3sc(=O)sc3nc2c1 . Output its growth AUC only. 0.982

State its growth AUC for this compound: Oc1c(Cl)c(Cl)cc(Cl)c1Cl 0.81

Look up growth AUC of COC(=O)COc1ccc(Cl)cc1Cl and report it. 0.944

Let me know recorded growth AUC for CS(=O)(=O)c1ccc(C(=O)C2C(=O)CCCC2=O)c(Cl)c1COCC(F)(F)F , thanks. 1.02

Name the recorded growth AUC of the item O=[N+]([O-])c1ccccc1 in your answer. 1.01

Look up and report measured growth AUC for this entry: COS(=O)(=O)[O-].Cn1c(-c2ccccc2)cc(-c2ccccc2)[n+]1C 0.994

Provide measured growth AUC value, entry: CCCCCCCCCc1ccc(O)cc1 1.03

Identify measured growth AUC associated with CCCCN(CCCC)SN(C)C(=O)Oc1cccc2c1OC(C)(C)C2 1.02

Specify reported growth AUC for the compound shown: CNC(=O)Oc1cc(C)cc(C(C)C)c1 0.969

Please report growth AUC for the following compound: CNC(=O)/C=C(\C)OP(=O)(OC)OC 1.03

Tell me its growth AUC given CCCOCCN(C(=O)CCl)c1c(CC)cccc1CC as the entry. 0.979

Determine its reported growth AUC: CNc1nc(C)c(C)c(OC(=O)N(C)C)n1 0.99

Please supply the value of reported growth AUC for the item Cc1cnc2c(C(=O)O)c(Cl)ccc2c1 0.996

Check the records and state growth AUC for CC[C@H]1CCCC(O[C@H]2CC[C@H](N(C)C)[C@@H](C)O2)[C@@H](C)C(=O)C2=C[C@@H]3[C@@H](C=C(C)[C@@H]4C[C@@H](O[C@@H]5O[C@@H](C)[C@H](OC)[C@@H](OC)[C@H]5OC)C[C@@H]34)[C@@H]2CC(=O)O1.CC[C@H]1CCCC(O[C@H]2CC[C@H](N(C)C)[C@@H](C)O2)[C@@H](C)C(=O)C2=C[C@@H]3[C@@H](C=C[C@@H]4C[C@@H](O[C@@H]5O[C@@H](C)[C@H](OC)[C@@H](OC)[C@H]5OC)C[C@@H]34)[C@@H]2CC(=O)O1 (some centres undefined) 1.01

====

test system: Lactobacillus paracasei; test: growth AUC relative to DMSO control (median of replicates) (fraction); higher = more growth (less inhibition), active = hit call of the paper; settings: 20 µM; 24 h
Kindly return YES if reported growth AUC is no lower than 1; return NO if it is lower.

Tell me whether growth AUC is at least 1 here: CC(C)(C)[C@@H](O)[C@H](Oc1ccc(Cl)cc1)n1cncn1 YES

Answer whether growth AUC of C=CCC1=C(C)C(OC(=O)C2C(C=C(C)C)C2(C)C)CC1=O (mixture of isomers) is greater than or equal to 1. NO

Item O=C(NC(=O)c1c(F)cccc1F)Nc1ccc(Cl)cc1 with growth AUC of 1 or above? NO

====

tested on: Eubacterium rectale; experiment: growth AUC relative to DMSO control (median of replicates) (fraction); higher = more growth (less inhibition), active = hit call of the paper; settings: 20 µM; 24 h
Consider the following compounds; for each one, report its growth AUC.
# answer = number (no unit)

Give me measured growth AUC, please, for this compound: CCN(CC)c1c([N+](=O)[O-])cc(C(F)(F)F)c(N)c1[N+](=O)[O-] 0.977

Return growth AUC (reported value) for this compound: ClC1=C(Cl)[C@]2(Cl)C3CC=CC3[C@@]1(Cl)C2(Cl)Cl (some centres not stated) 0.951

Look up and state reported growth AUC for c1ccc(-c2ccccc2)cc1 1.09

Indicate the recorded growth AUC value for this compound: CON(C)C(=O)Nc1ccc(Br)cc1 1.02

Fill in growth AUC for record CCOP(=O)(SC(C)CC)SC(C)CC (configuration not stated) 1.1

Find the measured growth AUC of CCOP(=S)(OCC)Oc1cc(Cl)c(SC)cc1Cl and report it. 0.897

State, in one line, measured growth AUC of Nc1nc(N)nc(N)n1 0.944

====

test system: Fusobacterium nucleatum subsp. animalis; test: growth AUC relative to DMSO control (median of replicates) (fraction); higher = more growth (less inhibition), active = hit call of the paper; details: 20 µM; 24 h
Decision: growth AUC compared against 1; not below it gives Yes, below it gives No.

For this compound, is measured growth AUC 1 or higher? CCCOC(=O)c1ccccc1C(=O)OCCC Yes

Determine whether measured growth AUC meets or exceeds 1 for ClC1=C(Cl)C2(Cl)[C@H]3[C@H]4O[C@H]4[C@H](Cl)[C@H]3C1(Cl)C2(Cl)Cl (single isomer, unassigned; isomer a) Yes

Test whether the compound CN1CSC(=S)N(C)C1 records growth AUC of 1 or higher. No

# bool: growth AUC of CCCCN(CC)c1c([N+](=O)[O-])cc(C(F)(F)F)cc1[N+](=O)[O-] >= 1 Yes

Could you verify whether the entry CCNc1nc(NC(C)C)nc(SC)n1 shows growth AUC of no less than 1? Yes

Reported growth AUC at or above 1? O=C(Nc1ccccc1)Nc1cnns1 No

growth AUC >= 1 for O=C(O)c1ccccc1C(=O)Nc1cccc2ccccc12 ? Yes

Please tell me: is the compound CSc1nc(N=[N+]=[N-])nc(NC(C)C)n1 at or over 1 in terms of growth AUC? No

Could you tell me if the measured growth AUC of CCCN(CCC)c1c([N+](=O)[O-])cc(S(N)(=O)=O)cc1[N+](=O)[O-] reaches 1 or more? No

Does growth AUC meet or surpass 1 for CC(C)(C)C(O)C(Cc1ccc(Cl)cc1Cl)n1cncn1 (mixture of isomers) ? No

Identify whether the reported growth AUC of the following compound is 1 or greater: COCCOC(=O)C(C#N)(C(=O)c1ccccc1C(F)(F)F)c1ccc(C(C)(C)C)cc1 (stereo not given) Yes

Please indicate if the recorded growth AUC for CCOC(=O)/C=C(C)/C=C/C[C@@H](C)CCCC(C)C meets or exceeds 1. Yes

Threshold query (growth AUC >= 1) on CCC(=O)Nc1ccc(Cl)c(Cl)c1 No

====

system: Coprococcus comes; experiment: growth AUC relative to DMSO control (median of replicates) (fraction); higher = more growth (less inhibition), active = hit call of the paper; details: 20 µM; 24 h
Can you tell me growth AUC for the items I'm about to list?
Returns: the value as a bare number; no unit string appended.

Give the reported growth AUC for this compound. CC(Oc1ccc(Cl)cc1Cl)C(=O)O (stereo unspecified) 1.02

Return value of growth AUC for input Clc1cc(Cl)nc(-c2ccccc2)n1 , no commentary. 1.02

Provide growth AUC value for the following compound: CC[C@H]1CCCC(O[C@H]2CC[C@H](N(C)C)[C@@H](C)O2)[C@@H](C)C(=O)C2=C[C@@H]3[C@@H](C=C(C)[C@@H]4C[C@@H](O[C@@H]5O[C@@H](C)[C@H](OC)[C@@H](OC)[C@H]5OC)C[C@@H]34)[C@@H]2CC(=O)O1.CC[C@H]1CCCC(O[C@H]2CC[C@H](N(C)C)[C@@H](C)O2)[C@@H](C)C(=O)C2=C[C@@H]3[C@@H](C=C[C@@H]4C[C@@H](O[C@@H]5O[C@@H](C)[C@H](OC)[C@@H](OC)[C@H]5OC)C[C@@H]34)[C@@H]2CC(=O)O1 (stereo partly specified) 0.973

Identify growth AUC associated with the compound COP(=S)(Oc1cc(Cl)c(Br)cc1Cl)c1ccccc1 (stereo unspecified) 1.02

Consider the compound CNC(=O)Oc1ccccc1OC(C)C and give its recorded growth AUC. 0.974

Name the recorded growth AUC of the compound listed here: CCOP(=O)(SC(C)CC)SC(C)CC (stereo unspecified) 1.01

Provide one value: measured growth AUC of CC1=NNC(=O)N(/N=C/c2cccnc2)C1 1.02

Determine its reported growth AUC: O=C1C(Cl)=C(Cl)C(=O)C(Cl)=C1Cl 1.02

Determine from records and report growth AUC for Clc1ccc(Cl)cc1 0.985

Let me know recorded growth AUC for ClC1(Cl)C2(Cl)C3(Cl)C4(Cl)C(Cl)(Cl)C5(Cl)C3(Cl)C1(Cl)C5(Cl)C24Cl (stereo unspecified) , thanks. 0.986

Give recorded growth AUC. NCP(=O)(O)O 1.02

Give the value of growth AUC reported for the following: O=C(O)COc1nc(Cl)c(Cl)cc1Cl 0.867

Hello, please tell me recorded growth AUC for this one: N#Cc1c[nH]cc1-c1cccc2c1OC(F)(F)O2 1.05

Give reported growth AUC value for N#Cc1nn(-c2c(Cl)cc(C(F)(F)F)cc2Cl)c(N)c1SC(F)(F)F 0.857

Identify measured growth AUC corresponding to O=c1oc2ccccc2c(O)c1C1CC(c2ccc(-c3ccccc3)cc2)Cc2ccccc21 (stereo unspecified) 0.946

Write down growth AUC measured for item CCOC(=O)CC(SP(=O)(OC)OC)C(=O)OCC (stereo unspecified) 1

Indicate the recorded growth AUC value for this compound: Oc1c(Br)cc(Br)cc1Br 1.01

Name the recorded growth AUC of the compound listed here: O=[N+]([O-])c1cc(C(F)(F)F)c(Cl)c([N+](=O)[O-])c1Nc1ncc(C(F)(F)F)cc1Cl 0.953

Identify measured growth AUC associated with CC1(C)C(C=C(Cl)Cl)C1C(=O)OCc1cccc(Oc2ccccc2)c1 (mixture of isomers) 0.964

Answer with the recorded growth AUC for the compound listed here: CCCCCCCCCCCCCN1CC(C)OC(C)C1 (stereo unspecified) 0.999

Look up and report measured growth AUC for this entry: CC(C)C(C(=O)OC(C#N)c1cccc(Oc2ccccc2)c1)c1ccc(Cl)cc1 (stereo unspecified) 1

Quickly give me recorded growth AUC for CCOP(=S)(OCC)SCn1c(=O)oc2cc(Cl)ccc21 1

Please indicate growth AUC recorded for COP(=O)(OC)OC1=C(Cl)C2C=CCC12 (stereo unspecified) 0.999

Quick one: give measured growth AUC for COP(=S)(OC)SC(CC(=O)O)C(=O)O (stereo unspecified) 1.01

Respond only with growth AUC recorded for CC(C)[C@H](C(=O)O[C@H](C#N)c1cccc(Oc2ccccc2)c1)c1ccc(Cl)cc1 0.973

Supply recorded growth AUC for COP(=S)(OC)Oc1ccc(S(C)=O)c(C)c1 (stereo unspecified) here. 1.04

Quote growth AUC reported for O=[N+]([O-])c1cc(Cl)ccc1Cl please. 0.935

// fetch growth AUC given entry COC(=O)NCc1cc(/C(C)=N\OCc2cccc(C)n2)ccc1Cl 1.05

Give me measured growth AUC, please, for this compound: O=C(NCCc1ncc(C(F)(F)F)cc1Cl)c1ccccc1C(F)(F)F 1

State, in one line, measured growth AUC of CC(C)N(C(=O)CCl)c1ccccc1 0.961

Specify measured growth AUC for COCC(C)N(C(=O)CCl)c1c(C)csc1C (stereo unspecified) . 1.02

Entry COc1cc(OC)nc(Sc2cccc(Cl)c2C(=O)O)n1 needs its growth AUC filled in; supply it. 1.02

Identify growth AUC associated with the compound CCc1nn(C)c(C(=O)NCc2ccc(C(C)(C)C)cc2)c1Cl 0.954

Retrieve growth AUC measured for O=C(O)CCCOc1ccc(Cl)cc1Cl and print it. 1.05

Recall and state the measured growth AUC for COC(=O)C(C)(Cl)Cl . 0.987

Input CCSC(=O)N(CC)C1CCCCC1 , output reported growth AUC. 0.988
